system: DU-145; test: NCI tumour cell line growth inhibition, 48 h
The source made the active and inactive calls. No stated cut-off is given here; in the data, active = GI50 up to about 1.1 µM and inactive = higher. Peptide text beside a SMILES is read from it. * marks the point of attachment. Boc = CC(C)(C)OC(=O)*
GI50 reference

Examples with their reported GI50 follow.
[[record]]
compound = "CC(C)(C)C(=O)C(N)C(=O)C(C)(C)C"
assayed_target = "DU-145"
reading = "> 100 µM (inactive)"

[[record]]
compound = "O=C(O)c1nc(-c2ccccc2)ncc1-c1nnnn1-c1ccccc1"
assayed_target = "DU-145"
reading = "> 100 µM (inactive)"

[[record]]
compound = "COC(=O)/C=C1/SC(/C(=C(/[O-])OC)[n+]2ccc3ccccc3c2)=NC1=O"
assayed_target = "DU-145"
reading = "> 100 µM (inactive)"

[[record]]
compound = "COC(=O)C(Cc1c[nH]c2ccccc12)NC(=O)C(Cc1c[nH]c2ccccc12)NC(=O)C(Cc1c[nH]c2ccccc12)NC(=O)C(Cc1c[nH]c2ccccc12)NC(=O)C(Cc1c[nH]c2ccccc12)NC(=O)OC(C)(C)C (stereo unspecified) (Boc-WWWWW-OMe; configuration not given here)"
assayed_target = "DU-145"
reading = "33.4 µM (inactive)"

[[record]]
compound = "Cc1ccc(Cl)cc1/N=N/C(=O)NNc1cc(Cl)ccc1C"
assayed_target = "DU-145"
reading = "21.4 µM (inactive)"


For the compound CC(=O)OC(Cn1cncn1)(Cn1cncn1)c1ccc(Cl)cc1Cl , give its measured GI50 value.
> 100 µM (inactive)

* * *

system: COLO 205; assay: NCI tumour cell line growth inhibition, 48 h
Calls of active or inactive are those of the source. No stated cut-off is given here; in the data, active = GI50 up to about 1.1 µM and inactive = higher.
Write down one outcome, taken from 1 for active, 0 for inactive

Take a look at these entries with their results.
[[record]]
molecule = "NC(N)=NN/C(=C1/N=c2ccc([N+](=O)[O-])cc2=NC1=O)C(O)c1ccco1 (centres undefined)"
qualitative_label = 0

[[record]]
molecule = "CN(C)CC1(C)CC/C(=C\\c2ccc3c(c2)OCO3)C1=O (centres undefined)"
qualitative_label = 0

[[record]]
molecule = "CC(=O)NNc1nc(C)c(C(=O)NNC(=O)C(=O)Nc2ccc(Cl)c([N+](=O)[O-])c2)s1"
qualitative_label = 0

[[record]]
molecule = "CCCCCCCCCCCCCCCCCCNc1ccn(C2OC(CO)C(O)C2O)c(=O)n1 (centres undefined)"
qualitative_label = 0


Dear colleague, could you share the recorded outcome for Nc1ccccc1C(=O)NNC(=O)c1ccccc1N when you have a moment?
0

Dear colleague, could you share the recorded outcome for COc1cc(/C=C/C(=O)c2sc(Nc3ccccc3)nc2C)ccc1O when you have a moment?
0

Dear colleague, could you share the recorded outcome for CCOC(=O)CN1C(=O)c2c(c(C)n(-c3ccccc3)c2C)C1=O when you have a moment?
0

Dear colleague, could you share the recorded outcome for CC1(C)OC(=O)C(=C2CC(c3ccccc3)c3ccccc32)C(=O)O1 (centres undefined) when you have a moment?
0

Dear colleague, could you share the recorded outcome for COc1ccc2nc3ccccc3c(NCCCN(C)CCCl)c2c1 when you have a moment?
1

* * *

test system: TK-10; experiment: NCI tumour cell line growth inhibition, 48 h
Calls of active or inactive are those of the source. No stated cut-off is given here; in the data, active = GI50 up to about 1.1 µM and inactive = higher.
parameter: GI50

Examples with their reported GI50 follow.
[[record]]
compound = "O=C(N/C(=C\\c1ccc(F)cc1)c1nc2ccccc2[nH]1)c1ccccc1"
parameter = "GI50"
reading = "> 100 µM (inactive)"

[[record]]
compound = "CC(C)(C)C(=O)C(N)C(=O)C(C)(C)C"
parameter = "GI50"
reading = "> 100 µM (inactive)"

[[record]]
compound = "C/C=C/C=C/C1=NN(c2cccc(S(=O)(=O)O)c2)C2(C1)C(Cl)C(=O)N2c1nc2ccccc2s1 (centres undefined)"
parameter = "GI50"
reading = "14.3 µM (inactive)"

[[record]]
compound = "C=C(C)C(O)C(O)c1c(OC)ccc2ccc(=O)oc12 (centres undefined)"
parameter = "GI50"
reading = "> 100 µM (inactive)"

[[record]]
compound = "COC(=O)NC(Cc1ccccc1)NC(C)=O (centres undefined)"
parameter = "GI50"
reading = "> 100 µM (inactive)"

[[record]]
compound = "O=C(c1cccs1)N(C(=O)N1CCCCC1)c1ccccc1"
parameter = "GI50"
reading = "> 100 µM (inactive)"


Determine reported GI50 for Cc1[nH]c2ccccc2c1C1Cc2ccccc2N1C(=O)/C(Cl)=C/c1ccccc1 (centres undefined) ; test system: TK-10.
> 73.3 µM (inactive)

Determine reported GI50 for O=c1n(CC2CO2)c2ccccc2n1CC1CS1 (centres undefined) ; test system: TK-10.
> 100 µM (inactive)

Determine reported GI50 for C=CCNS(=O)(=O)c1ncnc2[nH]cnc12 ; test system: TK-10.
> 100 µM (inactive)

* * *

GI50 reference
test system: MOLT-4; test: NCI tumour cell line growth inhibition, 48 h
Active and inactive are the calls of the source. No stated cut-off is given here; in the data, active = GI50 up to about 1.1 µM and inactive = higher.

Examples with their reported GI50 follow.
[[record]]
compound = "NC(Cc1c[nH]c2ccccc12)P(=O)(O)O (stereo unspecified)"
parameter = "GI50"
reading = "> 100 µM (inactive)"

[[record]]
compound = "CCOC(=O)n1c2ccccc2c(=O)n1CCO"
parameter = "GI50"
reading = "> 100 µM (inactive)"

[[record]]
compound = "CCCC(O)[C@@H](O)c1ccc2c(c1O)C(=O)c1c(OC)cccc1C2=O (stereo partly specified)"
parameter = "GI50"
reading = "21.1 µM (inactive)"

[[record]]
compound = "CC1=C(/C(C)=N/NC(=O)C(N)=O)Sc2ccccc2N1"
parameter = "GI50"
reading = "> 100 µM (inactive)"


Determine reported GI50 for COC(=O)CC1C(C)(C)C(=O)C2CC3=C4CC(=O)OC(c5ccoc5)C4(C)CCC3C1(C)C2=O (stereo unspecified) ; test system: MOLT-4.
> 100 µM (inactive)

Determine reported GI50 for COC(=O)C1=Nc2c(C)nn(-c3ccccc3)c2N=C(c2ccc([N+](=O)[O-])cc2)C1 ; test system: MOLT-4.
> 10 µM (inactive)

Determine reported GI50 for O=C(Nc1ccccc1)Oc1ccc(C(=S)Nc2ccc(Br)cc2)cc1 ; test system: MOLT-4.
13.4 µM (inactive)

Determine reported GI50 for CC(=O)OC(Cn1cncn1)(Cn1cncn1)c1ccc(Cl)cc1Cl ; test system: MOLT-4.
> 100 µM (inactive)

Determine reported GI50 for O=P1(NCCCl)OCCCN1CCCl (stereo unspecified) [IFOSFAMIDE] ; test system: MOLT-4.
262 µM (inactive)

Determine reported GI50 for C1CCOC2(CCC3(CC2)OCCCCO3)OC1 ; test system: MOLT-4.
> 100 µM (inactive)

Determine reported GI50 for CC[N+]1(C)CCC(O)(c2ccc(Cl)cc2)C(C(=O)c2ccc(Cl)cc2)C1 (stereo unspecified) ; test system: MOLT-4.
13.7 µM (inactive)

* * *

GI50 reference
test system: M14; assay: NCI tumour cell line growth inhibition, 48 h
The source made the active and inactive calls. Cut-off read from the data, not from the text of the source: active = GI50 up to about 1.1 µM and inactive = higher.

Examples with their reported GI50 follow.
[[record]]
compound = "CCC1(CC)SCc2nc3ccccc3n21"
reading = "26.5 µM (inactive)"

[[record]]
compound = "CCCCCCCCCCCCCCCCCC(=O)NCC(COP(=O)([O-])OCC[N+](C)(C)C)OC (stereo not given)"
reading = "11.5 µM (inactive)"

[[record]]
compound = "C=C(C)C1CC2=C(O1)C(=O)c1ccccc1C2=O (stereo not drawn) [DEHYDROISO-ALPHA-LAPACHONE]"
reading = "18.5 µM (inactive)"

[[record]]
compound = "Cc1ccc(Nc2nc(C)c(C(/C=C/c3ccc4c(c3)OCO4)=N/Nc3ccc([N+](=O)[O-])cc3[N+](=O)[O-])s2)c([N+](=O)[O-])c1"
reading = "61.7 µM (inactive)"


Now for a further compound.
For the compound COC(=O)C1C2OC(C)(C)OC2CN1S(=O)(=O)c1ccc(C)cc1 (stereo not given) , give its measured GI50 value.
> 100 µM (inactive)

* * *

system: SNB-75; experiment: NCI tumour cell line growth inhibition, 48 h
Active and inactive are the calls of the source. Rule as the data show it: active = GI50 up to about 1.1 µM and inactive = higher.
parameter: GI50

Examples with their reported GI50 follow.
[[record]]
compound = "COc1cc2oc(=O)cc(C)c2cc1OC"
assayed_target = "SNB-75"
parameter = "GI50"
reading = "> 100 µM (inactive)"

[[record]]
compound = "O=C1NC(N/N=C/c2ccccc2)=N/C1=C\\c1ccco1"
assayed_target = "SNB-75"
parameter = "GI50"
reading = "47.8 µM (inactive)"

[[record]]
compound = "CN/C(=N\\c1ccc(OC)c2ccccc12)SC"
assayed_target = "SNB-75"
parameter = "GI50"
reading = "> 10 µM (inactive)"

[[record]]
compound = "CC1=CCC[C@@]2(C)C(CC[C@@H]2C(C)/C=C/C(C)C)c2ccc(cc2C(=O)O)C[C@@H](O)CC1 (some centres not stated)"
assayed_target = "SNB-75"
parameter = "GI50"
reading = "13.8 µM (inactive)"

[[record]]
compound = "COc1ccc(C2Cc3cc(OC)c(OC)c(OC)c3C2)cc1 (configuration not stated)"
assayed_target = "SNB-75"
parameter = "GI50"
reading = "24.2 µM (inactive)"


For the compound O=C(Nn1c(-c2ccccc2)nc2ccccc2c1=O)c1cccc([N+](=O)[O-])c1 , give its measured GI50 value.
> 100 µM (inactive)

For the compound Cc1[nH]c2ccccc2c1C1Cc2ccccc2N1C(=O)/C(Cl)=C/c1ccccc1 (configuration not stated) , give its measured GI50 value.
4.65 µM (inactive)

The origin of these recorded values is ChEMBL document CHEMBL1201862.
